# Test system: recombinant hGzmB (20 nM)
# assayExplanation: buffer-1 (50 mM Tris, 100 mM NaCl, pH 7.4)
# experimentalParameters: human, 37° C., up to 2 h
*1 amine or outer side, *2 acyl side, *3 side chain or, on linkers, in order; H or OH if unused. Where no end group is shown, it is not given here. [ ]: non-standard residue; d: D form. The star is where a group is joined. ξ: configuration not given here. BODIPY(FL) = CC1=CC(C)=[N+]2C1=Cc1ccc(CCC(=O)*)n1[B-]2(F)F; X1 = CN(C)c1ccc(/N=N/c2ccc(C(=O)*)cc2)cc1; Ethylenediamine = C(CN[*:2])N[*:1]; Ile(3ξ) = CCC(C)[C@H](N)C(=O)O
readoutName: cleaved bond

Record excerpt, results attached:
• IEPDSL = Asp-Ser
• IEPDAG = Asp-Ala
• IEPDSG = Asp-Ser
• IEPDWR = Asp-Trp
• IEPDWL = Asp-Trp
• IEFDAL = Asp-Ala

Now look at this one.
Please look at this substance and report its cleaved bond: {BODIPY(FL)}-[Ile(3ξ)]EPDAL-{Ethylenediamine-X1} (SMILES CCC(C)[C@H](NC(=O)CCC1=[N+]2C(=Cc3c(C)cc(C)n3[B-]2(F)F)C=C1)C(=O)N[C@@H](CCC(=O)O)C(=O)N1CCC[C@H]1C(=O)N[C@@H](CC(=O)O)C(=O)N[C@@H](C)C(=O)N[C@@H](CC(C)C)C(=O)NCCNC(=O)c1ccc(/N=N/c2ccc(N(C)C)cc2)cc1) [H5]
Asp-Ala
